Target: Retinoic acid receptor RXR-alpha (Homo sapiens)
Sequence (P19793 whole entry): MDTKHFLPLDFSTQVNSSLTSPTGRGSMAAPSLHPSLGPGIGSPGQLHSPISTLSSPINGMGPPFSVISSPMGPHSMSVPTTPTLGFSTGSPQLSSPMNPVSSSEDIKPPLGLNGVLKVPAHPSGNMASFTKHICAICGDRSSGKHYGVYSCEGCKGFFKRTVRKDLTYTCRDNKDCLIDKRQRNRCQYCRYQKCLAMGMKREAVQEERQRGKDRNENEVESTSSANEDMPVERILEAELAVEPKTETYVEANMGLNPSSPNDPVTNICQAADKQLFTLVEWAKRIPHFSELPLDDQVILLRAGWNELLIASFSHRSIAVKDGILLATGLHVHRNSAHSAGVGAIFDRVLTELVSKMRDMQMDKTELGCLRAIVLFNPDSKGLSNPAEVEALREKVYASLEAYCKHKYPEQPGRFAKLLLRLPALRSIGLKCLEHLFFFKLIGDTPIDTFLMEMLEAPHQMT
Test: Inhibition of LG-100268-induced RXRalpha transactivation
Rule: IC50 below 1 µM gives true, anything at or above gives false.

COMPOUND_STRUCTURE | CAT
CCN1c2ccc(C#N)cc2N=C(c2ccc(C(=O)O)c(F)c2)c2cc3c(cc21)C(C)(C)CCC3(C)C | true
CCN1c2ccc(C#N)cc2N=C(c2ccc(C(=O)O)cc2)c2cc3c(cc21)C(C)(C)CCC3(C)C | true
CN1c2ccc(N3CCOCC3)cc2N=C(c2ccc(C(=O)O)cc2)c2cc3c(cc21)C(C)(C)CCC3(C)C | false
CN1c2ccc(S(C)(=O)=O)cc2N=C(c2ccc(C(=O)O)cc2)c2cc3c(cc21)C(C)(C)CCC3(C)C | false
CC(=O)c1ccc2c(c1)N=C(c1ccc(C(=O)O)cc1F)c1cc3c(cc1N2C)C(C)(C)CCC3(C)C | false
CN1c2ccc(SCc3ccc(Cl)cc3)cc2N=C(c2ccc(C(=O)O)cc2)c2cc3c(cc21)C(C)(C)CCC3(C)C | false
COc1ccc(S(=O)(=O)c2ccc3c(c2)N=C(c2ccc(C(=O)O)cc2)c2cc4c(cc2N3C)C(C)(C)CCC4(C)C)cc1 | true
CN1c2ccc(C#N)cc2N=C(c2ccc(C(=O)O)c(F)c2)c2cc3c(cc21)C(C)(C)CCC3(C)C | false
CN1c2ccc(S(=O)(=O)Nc3ccc(OC(F)(F)F)cc3)cc2N=C(c2ccc(C(=O)O)cc2)c2cc3c(cc21)C(C)(C)CCC3(C)C | true
CCCS(=O)(=O)c1ccc2c(c1)N=C(c1ccc(C(=O)O)cc1)c1cc3c(cc1N2C)C(C)(C)CCC3(C)C | true
CCN1c2ccc(C(C)=O)cc2N=C(c2ccc(C(=O)O)cc2F)c2cc3c(cc21)C(C)(C)CCC3(C)C | false
CN1c2ccc(S(=O)(=O)N(C)C)cc2N=C(c2ccc(C(=O)O)cc2)c2cc3c(cc21)C(C)(C)CCC3(C)C | false
CCCCNS(=O)(=O)c1ccc2c(c1)N=C(c1ccc(C(=O)O)cc1)c1cc3c(cc1N2C)C(C)(C)CCC3(C)C | true
COc1ccc(Sc2ccc3c(c2)N=C(c2ccc(C(=O)O)cc2)c2cc4c(cc2N3C)C(C)(C)CCC4(C)C)cc1 | false
CCN1c2ccc(C(C)=O)cc2N=C(c2ccc(C(=O)O)cc2)c2cc3c(cc21)C(C)(C)CCC3(C)C | true
CN1CCN(c2ccc3c(c2)N=C(c2ccc(C(=O)O)cc2)c2cc4c(cc2N3C)C(C)(C)CCC4(C)C)CC1 | false
CCCN1c2ccc(C#N)cc2N=C(c2ccc(C(=O)O)cc2)c2cc3c(cc21)C(C)(C)CCC3(C)C | false
CN1c2ccc(S(=O)(=O)c3ccc(OC(F)(F)F)cc3)cc2N=C(c2ccc(C(=O)O)cc2)c2cc3c(cc21)C(C)(C)CCC3(C)C | true
CN1CCN(S(=O)(=O)c2ccc3c(c2)N=C(c2ccc(C(=O)O)cc2)c2cc4c(cc2N3C)C(C)(C)CCC4(C)C)CC1 | false
CCN1c2ccc(C#N)cc2N=C(c2ccc(C(=O)O)cc2F)c2cc3c(cc21)C(C)(C)CCC3(C)C | false
COc1ccc(CS(=O)(=O)c2ccc3c(c2)N=C(c2ccc(C(=O)O)cc2)c2cc4c(cc2N3C)C(C)(C)CCC4(C)C)cc1 | false
CN1c2ccc(C#N)cc2N=C(c2ccc(C(=O)O)cc2)c2cc3c(cc21)C(C)(C)CCC3(C)C | true
COc1ccc(CSc2ccc3c(c2)N=C(c2ccc(C(=O)O)cc2)c2cc4c(cc2N3C)C(C)(C)CCC4(C)C)cc1 | false
CN1c2ccc(S(=O)(=O)Cc3ccc(Cl)cc3)cc2N=C(c2ccc(C(=O)O)cc2)c2cc3c(cc21)C(C)(C)CCC3(C)C | true
CC(=O)c1ccc2c(c1)N=C(c1ccc(C(=O)O)c(F)c1)c1cc3c(cc1N2C)C(C)(C)CCC3(C)C | false
CNS(=O)(=O)c1ccc2c(c1)N=C(c1ccc(C(=O)O)cc1)c1cc3c(cc1N2C)C(C)(C)CCC3(C)C | false
CC(=O)c1ccc2c(c1)N=C(c1ccc(C(=O)O)cc1)c1cc3c(cc1N2C)C(C)(C)CCC3(C)C | false
CSc1ccc2c(c1)N=C(c1ccc(C(=O)O)cc1)c1cc3c(cc1N2C)C(C)(C)CCC3(C)C | false
